Reported values of log10(Kd) for individual entries
- Target of assay: his-labeled human IL-13 (immunogen A) (human) (UniProt P35225)
- Protocol: SPR (Biacore), antibody captured by anti-human Fc, immunogen A as analyte
Scale type: logarithmic (base 10). Underlying Kd unit: nM.

>>> observed_value("c29D9H8 (mouse-human chimeric IL-13 antibody) (antibody, V domains shown) VH: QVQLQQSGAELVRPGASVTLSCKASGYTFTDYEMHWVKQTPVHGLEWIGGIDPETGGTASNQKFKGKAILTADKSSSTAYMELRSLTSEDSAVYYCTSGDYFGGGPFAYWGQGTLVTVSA VL: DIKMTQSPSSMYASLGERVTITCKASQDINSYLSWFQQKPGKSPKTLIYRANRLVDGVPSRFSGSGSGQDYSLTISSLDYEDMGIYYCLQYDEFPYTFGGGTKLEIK")
-1.49
>>> observed_value("c70F10A10 (mouse-human chimeric IL-13 antibody) (antibody, V domains shown) VH: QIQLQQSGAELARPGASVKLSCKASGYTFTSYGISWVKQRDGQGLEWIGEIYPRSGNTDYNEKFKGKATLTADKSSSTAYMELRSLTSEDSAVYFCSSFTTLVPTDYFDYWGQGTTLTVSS VL: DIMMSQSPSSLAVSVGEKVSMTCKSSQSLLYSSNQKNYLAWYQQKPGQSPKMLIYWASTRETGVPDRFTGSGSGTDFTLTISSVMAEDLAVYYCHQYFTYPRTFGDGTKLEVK")
0.01
>>> observed_value("c35H6E1 (mouse-human chimeric IL-13 antibody) (antibody, V domains shown) VH: QVTLKESGPGILQSSQTLSLTCSFSGFSLSTSNMGVSWIRQPSGKGLEWLAHIYWDDDKRYNPSLESRLTISKDTSRNQVFLKITSVDTADSATYYCARRTNYFSTRDYFDYWGQGTTLTVSS VL: DIQMTQSPASLSVSVGETVTITCRASENIYSNLVWYQQKQGKSPQLLVYAATKLADGVPSRFSGSGSGTQYSLKINSLQSEDFGSYYCQHFWGFPWTFGGGTKLEIK")
-0.47
>>> observed_value("c35E2C3 (mouse-human chimeric IL-13 antibody) (antibody, V domains shown) VH: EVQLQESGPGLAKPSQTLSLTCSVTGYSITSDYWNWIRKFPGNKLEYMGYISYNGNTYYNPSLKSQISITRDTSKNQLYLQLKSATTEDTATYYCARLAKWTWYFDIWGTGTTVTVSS VL: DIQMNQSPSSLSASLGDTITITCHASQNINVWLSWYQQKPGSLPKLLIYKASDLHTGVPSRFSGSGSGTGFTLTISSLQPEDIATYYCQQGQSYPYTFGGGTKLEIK")
-0.06

What does the record list as log10(Kd) for c28A2E11 (mouse-human chimeric IL-13 antibody) (antibody, V domains shown) VH: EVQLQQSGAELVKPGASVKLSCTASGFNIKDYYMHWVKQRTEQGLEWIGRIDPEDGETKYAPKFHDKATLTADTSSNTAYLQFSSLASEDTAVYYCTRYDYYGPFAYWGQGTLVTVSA VL: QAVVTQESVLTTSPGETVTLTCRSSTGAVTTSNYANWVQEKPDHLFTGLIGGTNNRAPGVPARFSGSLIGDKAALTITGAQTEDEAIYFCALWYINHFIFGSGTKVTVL ?
0.90

Sourced from patent US20190309059A1
